Entry source: BigSolDB 2.1

Experimental conditions: in n-butanol, 283.15 K
Endpoint: solubility (mole fraction)
Write the number on its own, no unit after it.

solubility (mole fraction) reported for this compound O=C(NC[C@H]1CN(c2ccc(N3CCOCC3=O)cc2)C(=O)O1)c1ccc(Cl)s1 : 5.56e-06

---

Experimental conditions: in n-propanol, 283.15 K
Endpoint: solubility (mole fraction)
Write the number on its own, no unit after it.

solubility (mole fraction) reported for this compound O=C(NC[C@H]1CN(c2ccc(N3CCOCC3=O)cc2)C(=O)O1)c1ccc(Cl)s1 : 7.99e-06

---

Experimental conditions: in n-butanol, 298.15 K
Endpoint: solubility (mole fraction)

solubility (mole fraction) reported for this molecule O=C(NC[C@H]1CN(c2ccc(N3CCOCC3=O)cc2)C(=O)O1)c1ccc(Cl)s1 : 1.48e-05

---

Experimental conditions: in n-butanol, 308.15 K
Endpoint: solubility (mole fraction)

solubility (mole fraction) reported for this compound O=C(NC[C@H]1CN(c2ccc(N3CCOCC3=O)cc2)C(=O)O1)c1ccc(Cl)s1 : 2.73e-05

---

Experimental conditions: in ethanol, 293.15 K
Endpoint: solubility (mole fraction)
Write the number on its own, no unit after it.

solubility (mole fraction) reported for this compound O=C(NC[C@H]1CN(c2ccc(N3CCOCC3=O)cc2)C(=O)O1)c1ccc(Cl)s1 : 1.75e-05

---

Experimental conditions: in ethanol, 283.15 K
Endpoint: solubility (mole fraction)
Write the number on its own, no unit after it.

solubility (mole fraction) reported for this compound O=C(NC[C@H]1CN(c2ccc(N3CCOCC3=O)cc2)C(=O)O1)c1ccc(Cl)s1 : 1.21e-05

---

Experimental conditions: in methanol, 298.15 K
Endpoint: solubility (mole fraction)
Write the number on its own, no unit after it.

solubility (mole fraction) reported for this compound O=C(NC[C@H]1CN(c2ccc(N3CCOCC3=O)cc2)C(=O)O1)c1ccc(Cl)s1 : 4.42e-05

---

Experimental conditions: in methanol, 303.15 K
Endpoint: solubility (mole fraction)
Write the number on its own, no unit after it.

solubility (mole fraction) reported for this molecule O=C(NC[C@H]1CN(c2ccc(N3CCOCC3=O)cc2)C(=O)O1)c1ccc(Cl)s1 : 5.29e-05

---

Experimental conditions: in ethanol, 308.15 K
Endpoint: solubility (mole fraction)
Write the number on its own, no unit after it.

solubility (mole fraction) reported for this compound O=C(NC[C@H]1CN(c2ccc(N3CCOCC3=O)cc2)C(=O)O1)c1ccc(Cl)s1 : 2.94e-05
